Each recorded value in this set is attributed to PubChem BioAssay AID1508600.

ASSAY_SUMMARY: Components of the Cytosolic LPS Sensing Pathway: Gene Identification via Genome-wide siRNA Screen;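 further: robust z of the log signal after scaling to non-targeting control siRNA wells of the plate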
EXPERIMENTAL_CONTEXT: RAW264.7 macrophages, IL-1a HTRF, actives lie on both sides, screened at 100 nM (by protocol), cells primed 5 h with Pam3CSK4 first
Hit rate of the full screen: of about 53,000 sequences, about 3,700 (7%) were called active. Many of the other results were omitted from the sample, so actives are more common in it than they were.
I'd be grateful if you could share measured z-score for these entries.
# respond with the number and nothing more

Per the records, this sequence ( GGGAUGCGGAGGUUUAAGATT against Dhx37 ) has z-score equal to 0.815

Lookup result for CCAAAGAGCGCAUGGCUCATT against Epn2 ; measured z-score: -0.782

Reported z-score ( GGGUUCUGUGUAAAUGUAUTT against Gzma ) = 0.203

Query GGGAUAGUGUAAGUUAGUUTT against Dppa4 yields z-score of -0.0875

Note to self: z-score recorded for GCUGUUAUAACCUUGUUACTT against Rspry1 was 1.19

Entry CCACCUGUCGAGAUGUCGUTT against Ppp1r13b ; z-score = 1.1
